target: Transient receptor potential cation channel subfamily V member 1 (Rattus norvegicus); assay: Antagonist activity towards rat TRPV1 expressed in CHO cells; format: functional, cell-based
parameter-measured: Ki (nM)

• COc1cc(CO/C(S)=N/Cc2ccc(C(C)(C)C)cc2)ccc1NS(C)(=O)=O = 110
• Cc1ccc(CCCNC(=O)Cc2ccc(NS(C)(=O)=O)c(F)c2)cc1C = 4660
• COc1cc(CNC(=S)NCc2ccc(C(C)(C)C)cc2)ccc1NS(C)(=O)=O = 3.4

I. CC(C)(C)c1ccc(CN(O)C(=O)Cc2ccc(NS(C)(=O)=O)cc2)cc1
II. CC(C)(C)c1ccc(C/N=C(\S)OCc2ccc(NS(C)(=O)=O)cc2)cc1
Consider I and II . Which of these has its Ki at a higher number? Selection: enter the item's label. I
(I: 6600 nM, II: 222 nM)

* * *

molecular target: Transient receptor potential cation channel subfamily V member 1 (Rattus norvegicus, UniProt O35433); test: Antagonist activity towards rat TRPV1 expressed in CHO cells; type: functional, cell-based
Sequence (O35433 whole entry): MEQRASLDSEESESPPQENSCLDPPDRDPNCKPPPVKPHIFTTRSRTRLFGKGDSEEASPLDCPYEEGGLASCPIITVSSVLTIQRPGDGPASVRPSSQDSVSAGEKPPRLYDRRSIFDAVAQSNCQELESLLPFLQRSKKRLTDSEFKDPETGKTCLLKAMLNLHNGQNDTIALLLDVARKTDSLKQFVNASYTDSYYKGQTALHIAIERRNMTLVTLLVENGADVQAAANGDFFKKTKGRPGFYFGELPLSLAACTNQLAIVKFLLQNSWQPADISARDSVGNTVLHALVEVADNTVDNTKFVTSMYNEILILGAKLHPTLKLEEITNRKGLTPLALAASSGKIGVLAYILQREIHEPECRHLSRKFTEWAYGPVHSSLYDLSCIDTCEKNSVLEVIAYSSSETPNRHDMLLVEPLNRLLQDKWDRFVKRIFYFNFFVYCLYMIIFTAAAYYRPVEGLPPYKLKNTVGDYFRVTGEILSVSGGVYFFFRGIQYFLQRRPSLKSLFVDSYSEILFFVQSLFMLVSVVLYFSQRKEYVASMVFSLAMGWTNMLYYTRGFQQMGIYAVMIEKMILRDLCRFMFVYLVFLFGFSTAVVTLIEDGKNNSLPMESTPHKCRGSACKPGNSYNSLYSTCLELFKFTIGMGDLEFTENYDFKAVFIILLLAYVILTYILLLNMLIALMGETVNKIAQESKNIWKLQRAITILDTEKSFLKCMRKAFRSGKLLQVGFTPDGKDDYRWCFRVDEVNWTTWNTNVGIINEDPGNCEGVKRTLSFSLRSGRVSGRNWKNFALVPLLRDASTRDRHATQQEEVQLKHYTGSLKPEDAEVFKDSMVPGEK
parameter-measured: Ki (nM)

Sample records with Ki:
- CC(C)(C)c1ccc(CNC(=O)Cc2ccc(NS(C)(=O)=O)c(F)c2)cc1: 118
- CC(C)(C)c1ccc(C/N=C(\S)N(O)Cc2ccc(NS(C)(=O)=O)cc2)cc1: 470

I. CC(C)(C)c1ccc(CNC(=O)Cc2ccc(NS(C)(=O)=O)cc2)cc1
II. CC(C)(C)c1ccc(C/N=C(\S)OCc2ccc(NS(C)(=O)=O)c(F)c2)cc1
Which has the smaller recorded Ki, I or II ? Selection: enter the item's label. II

* * *

target: UniProt:O35433; assay: Induction of [Ca2+] uptake in CHO cells expressing rat TRPV1 relative to 300 nM capsaicin; format: functional, cell-based
parameter-measured: EC50

Quickly give me recorded EC50 for CC(C)(C)c1ccc(CN(O)/C(S)=N/Cc2ccc(NS(C)(=O)=O)c(F)c2)cc1 > 7.06 µM

The measurements presented in this section are drawn from ChEMBL document CHEMBL1142823.
